- TESTED SYSTEM: PDE1B (Homo sapiens)
- Construct: purchased Reaction Biology Corporation, Malvern, Pa
- PROCEDURE DETAILS: Phosphodiesterase enzyme screening assay, PDE1B
- Assay type: biochemical
- MEASUREMENT PARAMETERS: Table 1; ratio of IC50 values; value greater than 1 indicates greater selectivity for PDE9A2
ASSAY METRIC: PDE1B selectivity (versus PDE9A2)

Which PDE1B selectivity (versus PDE9A2) value belongs to CC1CN(Cc2ccccn2)CC1c1nn2c(C3CCOCC3)ncc2c(=O)[nH]1 (single isomer, unassigned; (+)) ?
470

Which PDE1B selectivity (versus PDE9A2) value belongs to Cc1ccc(F)cc1-c1ncc2c(=O)[nH]c(C3CN(Cc4ncccn4)CC3C)nn12 (single isomer, unassigned; (+)) [(+)-7-(5-fluoro-2-methylphenyl)-2-((3,4-trans)-4-methyl-1-(p] ?
102

Which PDE1B selectivity (versus PDE9A2) value belongs to Cc1nccc(CN2CC(C)C(c3nn4c(C5CCOCC5)ncc4c(=O)[nH]3)C2)n1 (single isomer, unassigned; (+)) ?
400

###

- TESTED SYSTEM: PDE1B (Homo sapiens, UniProt Q01064)
- Construct: purchased Reaction Biology Corporation, Malvern, Pa
- Sequence (Q01064 whole entry): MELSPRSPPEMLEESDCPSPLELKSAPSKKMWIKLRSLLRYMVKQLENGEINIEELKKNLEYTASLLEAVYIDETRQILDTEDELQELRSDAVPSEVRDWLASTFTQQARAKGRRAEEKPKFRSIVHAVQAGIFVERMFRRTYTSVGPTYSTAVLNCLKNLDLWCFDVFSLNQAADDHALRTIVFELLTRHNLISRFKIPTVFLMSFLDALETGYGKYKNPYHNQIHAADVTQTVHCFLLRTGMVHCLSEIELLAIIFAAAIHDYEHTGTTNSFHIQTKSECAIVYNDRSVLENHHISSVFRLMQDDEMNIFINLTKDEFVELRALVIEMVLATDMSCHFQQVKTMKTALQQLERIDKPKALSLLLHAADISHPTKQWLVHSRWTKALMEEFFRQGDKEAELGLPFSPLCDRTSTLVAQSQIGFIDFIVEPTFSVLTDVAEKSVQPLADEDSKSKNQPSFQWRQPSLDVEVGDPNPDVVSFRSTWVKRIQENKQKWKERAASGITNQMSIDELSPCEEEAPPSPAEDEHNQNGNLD
- PROCEDURE DETAILS: Phosphodiesterase enzyme screening assay, PDE1B
- Assay type: biochemical
- MEASUREMENT PARAMETERS: Table 1; ratio of IC50 values; value greater than 1 indicates greater selectivity for PDE9A2
Cut-off 60 on PDE1B selectivity (versus PDE9A2), inclusive. At or above means class 1; below means class 0.

Would you say CC1CN(Cc2ccccc2C(F)(F)F)CC1c1nn2c(C3CCOCC3)ncc2c(=O)[nH]1 (single isomer, unassigned; (+)) shows PDE1B selectivity (versus PDE9A2) at minimum 60?
class 0

Would you say CC1CN(Cc2ccc(C3CC3)cc2)CC1c1nn2c(C3CCOCC3)ncc2c(=O)[nH]1 (single isomer, unassigned; (+)) shows PDE1B selectivity (versus PDE9A2) at minimum 60?
class 1

Would you say CC1CN(Cc2ccc(Cl)cc2Cl)CC1c1nn2c(C3CCOCC3)ncc2c(=O)[nH]1 (single isomer, unassigned; (+)) shows PDE1B selectivity (versus PDE9A2) at minimum 60?
class 1

Would you say CC1CN(Cc2cn3ncccc3n2)CC1c1nn2c(C3CCOCC3)ncc2c(=O)[nH]1 (single isomer, unassigned; (-)) shows PDE1B selectivity (versus PDE9A2) at minimum 60?
class 0

Would you say CC1CN(Cc2ccc(F)c(C(F)(F)F)c2)CC1c1nn2c(C3CCOCC3)ncc2c(=O)[nH]1 (single isomer, unassigned; (+)) shows PDE1B selectivity (versus PDE9A2) at minimum 60?
class 1

Would you say CC1CN(Cc2cccc(F)c2)CC1c1nn2c(C3CCOCC3)ncc2c(=O)[nH]1 (single isomer, unassigned; (-)) shows PDE1B selectivity (versus PDE9A2) at minimum 60?
class 1

Would you say CC1CN(Cc2ncccn2)CC1c1nn2c(C3CCOC3)ncc2c(=O)[nH]1 (single isomer, unassigned; (+)) [(+)-2-((3,4-trans)-4-methyl-1-(pyrimidin-2-ylmethyl)pyrrolid] shows PDE1B selectivity (versus PDE9A2) at minimum 60?
class 0

###

- TESTED SYSTEM: PDE1A (Homo sapiens)
- Construct: purchased Reaction Biology Corporation, Malvern, Pa
- Sequence (P54750 whole entry): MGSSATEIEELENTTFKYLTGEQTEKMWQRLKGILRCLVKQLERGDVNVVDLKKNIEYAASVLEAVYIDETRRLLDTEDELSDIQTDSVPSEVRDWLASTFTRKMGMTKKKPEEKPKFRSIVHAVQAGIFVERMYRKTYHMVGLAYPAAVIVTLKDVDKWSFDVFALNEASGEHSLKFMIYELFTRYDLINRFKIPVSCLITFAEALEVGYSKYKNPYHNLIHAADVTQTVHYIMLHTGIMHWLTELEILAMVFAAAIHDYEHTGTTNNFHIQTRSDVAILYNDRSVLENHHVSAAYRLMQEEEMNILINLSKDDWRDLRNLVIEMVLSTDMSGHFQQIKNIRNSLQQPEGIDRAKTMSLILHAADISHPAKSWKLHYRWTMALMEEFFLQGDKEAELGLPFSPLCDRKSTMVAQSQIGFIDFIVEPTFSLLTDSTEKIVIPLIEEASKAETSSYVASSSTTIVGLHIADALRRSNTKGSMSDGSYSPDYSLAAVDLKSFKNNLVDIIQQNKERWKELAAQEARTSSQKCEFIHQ
- PROCEDURE DETAILS: Phosphodiesterase enzyme screening assay, PDE1A
- Assay type: biochemical
- MEASUREMENT PARAMETERS: Table 1; ratio of IC50 values; value greater than 1 indicates greater selectivity for PDE9A2
ASSAY METRIC: PDE1A selectivity (versus PDE9A2)
// keep it numeric: no unit symbol after the value

Item CC1CN(Cc2cc(F)cc(F)c2)CC1c1nn2c(C3CCOCC3)ncc2c(=O)[nH]1 (single isomer, unassigned; (+)) with PDE1A (Homo sapiens) - PDE1A selectivity (versus PDE9A2)?
1710

Item CC1CN(Cc2ccc(F)c(C(F)(F)F)c2)CC1c1nn2c(C3CCOCC3)ncc2c(=O)[nH]1 (single isomer, unassigned; (+)) with PDE1A (Homo sapiens) - PDE1A selectivity (versus PDE9A2)?
1687

Item CC1CN(Cc2cccc(C#N)c2)CC1c1nn2c(C3CCOCC3)ncc2c(=O)[nH]1 (single isomer, unassigned; (+)) with PDE1A (Homo sapiens) - PDE1A selectivity (versus PDE9A2)?
942

Item CC1CN(Cc2cccc(Cl)c2)CC1c1nn2c(C3CCOCC3)ncc2c(=O)[nH]1 (single isomer, unassigned; (+)) with PDE1A (Homo sapiens) - PDE1A selectivity (versus PDE9A2)?
470
